test system: A498; assay: NCI tumour cell line growth inhibition, 48 h
The source made the active and inactive calls. No stated cut-off is given here; in the data, active = GI50 up to about 1.1 µM and inactive = higher.
Would you kindly list GI50 for each of these molecules?

Solved cases below.
O=Cc1[nH]c2ccccc2c1Br; 16.8 µM (inactive)
Cn1c(-c2cccs2)cc(-c2ccccc2)c1-c1cccs1; > 100 µM (inactive)
CC[C@@H]1CC[C@@H]2[C@H](CC[C@]3(C)[C@@H](OS(=O)(=O)c4ccc(C)cc4)CC[C@@H]23)[C@H]1COS(=O)(=O)c1ccc(C)cc1; > 100 µM (inactive)
O=C(Nc1ccc([As](=O)(O)O)cc1)Nc1cccc(Cl)c1Cl; > 100 µM (inactive)
CC(C)(C)c1cc2c(O)c(c1)Cc1cc(C(C)(C)C)cc(c1O)Cc1cc(C(C)(C)C)cc(c1O)Cc1cc(C(C)(C)C)cc(c1O)Cc1cc(C(C)(C)C)cc(c1O)Cc1cc(C(C)(C)C)cc(c1O)Cc1cc(C(C)(C)C)cc(c1O)Cc1cc(C(C)(C)C)cc(c1O)C2; > 50 µM (inactive)
Cc1cc(NS(=O)(=O)c2ccc(NC(=O)c3ccc4nc5ccccc5c(Nc5ccc(S(N)(=O)=O)cc5)c4c3)cc2)no1; 55.5 µM (inactive)
COc1cc(S(=O)(=O)Nc2nc(-c3ccc(N)cc3)cs2)ccc1Cl; 84.3 µM (inactive)
COc1ccc2c3c([nH]c(=O)c2c1C(=O)O)-c1ccccc1CC3; > 100 µM (inactive)
O=C(/C=C/c1ccc(OCC(=O)N2CCN(c3ccccc3)CC2)cc1)c1ccccc1; > 56.8 µM (inactive)
CC(C)=CC(=O)c1[nH]c2ccccc2c1CC(=O)NCCc1c[nH]cn1; > 100 µM (inactive)

Would you mind giving GI50 for every molecule in the list below?
1. O=C1/C(=C/c2ccc(O)cc2)CCc2ccc([N+](=O)[O-])cc21
2. CCOC(=O)CN(CC)C(=O)NC12CC3CC(CC(C3)C1)C2
3. CC1CCC2C(C)C(OC(=O)CCC(=O)O)OC3OC4(C)CCC1C32OO4 (stereo unspecified)
4. Cc1cccc(C)c1N1C(=O)C(=O)C(c2nc3ccccc3s2)/C(=N/NC(=O)c2ccccc2O)C1=O (stereo unspecified)
5. COc1ccccc1NC(=O)C1=C(C)NC(C)=C(C(=O)Nc2ccccc2OC)C1c1cccc2c1OCO2
6. CC(C)c1ccc(/C=C/c2cc(C(=O)NNC(=O)NC3CCCCC3)nc(S)n2)cc1

1: 34.6 µM (inactive); 2: 136 µM (inactive); 3: 27.2 µM (inactive); 4: 28.6 µM (inactive); 5: > 100 µM (inactive); 6: > 100 µM (inactive)

---

test system: UACC-62; test: NCI tumour cell line growth inhibition, 48 h
Calls of active or inactive are those of the source. Rule as the data show it: active = GI50 up to about 1.1 µM and inactive = higher.
Your response should consist of one outcome taken from true = active, false = inactive

Short answer needed: outcome of this test for Clc1ccc(-c2c(C3=NCCCN3)nnn2-c2ccccc2)cc1 ?
false

Short answer needed: outcome of this test for O=C(NC1=C(Cl)C(=O)c2ccccc2C1=O)c1ccc(F)cc1 ?
true

Short answer needed: outcome of this test for C/N=c1/ss/c(=N\C(SC)=[N+](C)C)n1C.[O-][Cl+3]([O-])([O-])[O-] ?
false

Short answer needed: outcome of this test for O=C(c1ccccc1)N1CCN(C(=S)N(C(=O)c2ccccc2)c2ccccc2)C1=S ?
false

Short answer needed: outcome of this test for NS(=O)(=O)c1nnc(NS(=O)(=O)c2ccccc2[N+](=O)[O-])s1 ?
false

---

tested on: K562; experiment: NCI tumour cell line growth inhibition, 48 h
Activity calls are given as the source filed them. No stated cut-off is given here; in the data, active = GI50 up to about 1.1 µM and inactive = higher.
Would you kindly list GI50 for each of these molecules?

Solved cases below.
CC1=NCCc2cc3[nH]c4ccccc4c3cc21; 9.79 µM (inactive)
CCOC(=O)c1ccc(C(=O)/C(C(=O)OC(C)(C)C)=C2\CCCN2C)n1C; 42.1 µM (inactive)
CC(=O)c1ccc2c(c1)CC1(C2)Cc2ccccc2C1=O (centres undefined); 36.1 µM (inactive)
c1ccc(/N=C2\SC(=NNc3ccccc3)S\C2=N/c2ccccc2)cc1; > 100 µM (inactive)
Cc1cc(S(=O)(=O)Nc2nc3cc(-c4ccc(Cl)cc4)sc3c(=O)n2N)c(S)cc1Cl; 32.7 µM (inactive)
CCOC(=N)CC(=O)Nc1cccc(C)c1C; > 10 µM (inactive)
O=C1[C@H](O)[C@@H]2CCC[C@@]23CCCN13; > 100 µM (inactive)
O=C(c1ccccc1)N1CCN(C(=S)N(C(=O)c2ccccc2)c2ccccc2)C1=S; 2.41 µM (inactive)
CCOC(=O)C1=C(C)N(NC(=O)Nc2ccccc2)C(=O)C1=P(c1ccccc1)(c1ccccc1)c1ccccc1; 26.6 µM (inactive)
CN(C)C(=S)/N=c1\ss/c(=N\C(=S)N(C)C)n1-c1cccc(Cl)c1; > 100 µM (inactive)

Would you mind giving GI50 for every molecule in the list below?
1. COc1ccccc1NC(=O)C1=C(C)NC(C)=C(C(=O)Nc2ccccc2OC)C1c1ccccc1Cl
2. COc1ccc2c3c([nH]c(=O)c2c1C(=O)O)-c1ccccc1CC3

["32.7 µM (inactive)", "> 100 µM (inactive)"]

---

system: IGROV-1; assay: NCI tumour cell line growth inhibition, 48 h
Activity calls are given as the source filed them. No stated cut-off is given here; in the data, active = GI50 up to about 1.1 µM and inactive = higher.
Would you kindly list GI50 for each of these molecules?

Solved cases below.
CC(C)(C)CC(C)(C)c1cc2c(O)c(c1)Cc1cc(C(C)(C)CC(C)(C)C)cc(c1O)Cc1cc(C(C)(C)CC(C)(C)C)cc(c1O)Cc1cc(C(C)(C)CC(C)(C)C)cc(c1O)Cc1cc(C(C)(C)CC(C)(C)C)cc(c1O)C2; > 100 µM (inactive)
COc1nc2c(OC)cccc2c(OC)c1C=O; > 100 µM (inactive)
CCCCCCCCCC(=O)CC(=O)c1c(O)cccc1O; 32.3 µM (inactive)

Would you mind giving GI50 for every molecule in the list below?
1. CC1CCCC(C(O)CC2CC(=O)NC(=O)C2)C1O (configuration not stated)
2. CC[P+]1(CC)CCCC1
3. COC(=O)/C(=N\Nc1nnc(C)n1N)C(C#N)c1ccccc1 (configuration not stated)
4. Oc1ccc(-c2cn3cc(C(F)(F)F)ccc3n2)cc1

1: > 100 µM (inactive); 2: > 100 µM (inactive); 3: > 54.8 µM (inactive); 4: 63.2 µM (inactive)

---

Would you kindly list GI50 for each of these compounds?
tested on: SK-MEL-5; assay: NCI tumour cell line growth inhibition, 48 h
Activity calls are given as the source filed them. Rule as the data show it: active = GI50 up to about 1.1 µM and inactive = higher.

Would you mind giving GI50 for every compound in the list below?
1. O=c1[nH]c(=O)n(C2CC(O)C(CO)O2)c2nc3ccc4cc5ccccc5cc4c3nc12 (stereo not drawn)
2. NC12CC3C4CC5(N)CC3C(C1)C(C5)C4C2
3. C/N=c1/ss/c(=N\C(SC)=[N+](C)C)n1C.[O-][Cl+3]([O-])([O-])[O-]
4. c1ccc2c(c1)SCCCSCCCS2

1. > 100 µM (inactive)
2. > 100 µM (inactive)
3. 0.419 µM (active)
4. > 100 µM (inactive)

---

tested on: HCC 2998; experiment: NCI tumour cell line growth inhibition, 48 h
Activity calls are given as the source filed them. Cut-off read from the data, not from the text of the source: active = GI50 up to about 1.1 µM and inactive = higher.
Your response should consist of one outcome taken from active, inactive

Past entries and their recorded results:
CC1OC(OC2C(O[C@H]3CC[C@@]4(C)[C@@H](CC[C@@H]5[C@@H]4CC[C@]4(C)[C@@H]6[C@H](C[C@@H]54)O[C@]4(CC[C@@H](C)CO4)[C@H]6C)C3)OC(CO)C(OC3OC(CO)C(O)C(OC4OCC(O)C(O)C4O)C3OC3OCC(O)C(O)C3O)C2O)C(O)C(O)C1O (stereo partly drawn); inactive
CSc1c(C#N)c2n(c3ccccc3[n+]2C)c2ncccc12; inactive
COc1ccc(/N=N/C(C(=O)c2ccccc2)C(=O)c2ccccc2)cc1; inactive

Short answer needed: outcome of this test for NCCCN(CCCN)CCN(CCN(CCCN)CCCN)CCN(CCCN)CCCN ?
inactive

Short answer needed: outcome of this test for CCOC(=O)C1C(c2ccc(OC)cc2)c2c(n[nH]c2O)CC1(O)OCC (stereo not drawn) ?
inactive

Short answer needed: outcome of this test for COc1cc2c3c(n(CCCNCCO)c(=O)c2cc1OC)-c1cc2c(cc1C3=O)OCO2 ?
active

Short answer needed: outcome of this test for O=C1C2=C(C3=NCCc4c[nH]c1c43)c1c(cc(Br)c(O)c1Br)CCN2 ?
inactive

Short answer needed: outcome of this test for Nc1nc(Cl)cc(NCCC2(CO)CCC2)n1 ?
inactive

Short answer needed: outcome of this test for CSc1nc(NC2CCCC2)c2cc[nH]c2n1 ?
inactive

Short answer needed: outcome of this test for N#Cc1cc2c(n(C3OC(CO)C(O)C(O)C3O)c1=S)CCC2 (stereo not drawn) ?
inactive

Short answer needed: outcome of this test for CCCCN(C)/N=N/c1[nH]cnc1C(N)=O ?
inactive

Short answer needed: outcome of this test for CC(=O)[C@H]1[C@@H](OCc2ccccc2)O[N+]([O-])=C(C)[C@@H]1c1ccccc1 ?
inactive

Short answer needed: outcome of this test for O=C(C#Cc1ccccc1)N1c2ccccc2CC1c1c[nH]c2ccccc12 (stereo not drawn) ?
inactive

Short answer needed: outcome of this test for CC1OC(O[C@@H]2OC=C(C=O)[C@@]3(O)CC[C@H](C)[C@@H]23)C(O)C(O)C1O (stereo partly drawn) ?
inactive

Short answer needed: outcome of this test for CCCN1C(=O)/C(=C(/O)C(=O)OCC)C(c2ccc(OC)c(OC)c2)C1=O (stereo not drawn) ?
inactive

Short answer needed: outcome of this test for CC(=O)c1ccc2c(c1)CC1(C2)Cc2ccccc2C1=O (stereo not drawn) ?
inactive

Short answer needed: outcome of this test for COC(=O)C1(Cc2ccccc2)Cc2ccccc2C1=O (stereo not drawn) ?
inactive

Data provenance: ChEMBL document CHEMBL1201862
